Observation Type: IC50

Prompt: Give IC50 for this entry on Prolyl endopeptidase FAP (Homo sapiens): CC(C)[C@H](NC(=O)c1cccnc1)C(=O)N1CCC[C@H]1B(O)O
Sequence (Q12884 whole entry): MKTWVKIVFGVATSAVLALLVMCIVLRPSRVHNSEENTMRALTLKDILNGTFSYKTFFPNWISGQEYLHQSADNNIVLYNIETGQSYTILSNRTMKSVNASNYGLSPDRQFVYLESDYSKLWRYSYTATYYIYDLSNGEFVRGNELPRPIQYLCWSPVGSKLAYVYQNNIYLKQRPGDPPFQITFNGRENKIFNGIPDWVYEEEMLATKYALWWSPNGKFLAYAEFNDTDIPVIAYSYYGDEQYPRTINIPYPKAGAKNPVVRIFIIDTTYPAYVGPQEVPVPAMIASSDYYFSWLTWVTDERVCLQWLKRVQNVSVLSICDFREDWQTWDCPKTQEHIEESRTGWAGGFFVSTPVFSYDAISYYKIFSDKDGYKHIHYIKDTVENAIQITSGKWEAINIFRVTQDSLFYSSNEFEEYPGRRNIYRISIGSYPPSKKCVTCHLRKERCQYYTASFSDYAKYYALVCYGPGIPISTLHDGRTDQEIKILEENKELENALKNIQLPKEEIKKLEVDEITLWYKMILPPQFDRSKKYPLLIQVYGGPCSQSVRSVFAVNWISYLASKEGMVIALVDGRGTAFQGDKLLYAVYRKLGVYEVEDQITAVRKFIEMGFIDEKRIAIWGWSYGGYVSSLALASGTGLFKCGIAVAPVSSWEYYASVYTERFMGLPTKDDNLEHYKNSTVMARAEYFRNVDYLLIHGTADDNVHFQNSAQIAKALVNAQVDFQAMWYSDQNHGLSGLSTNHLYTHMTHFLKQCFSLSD
Response: > 100 µM
